Listing: growth of selected compounds
Tested on: T-47D breast
Assay: NCI-60 one-dose screen, 48 h (100 = growth as untreated, 0 = no growth, -100 = all killed)
Conditions: 10 µM unless noted
About 83,000 compounds went through this panel and 20% of them were active in at least one assay; those are over-represented in the sample as a whole. Active and inactive are the calls of the source. How the source made its calls: active means growth percent below 10; inactive means the rest.

{"Compound": "O=S(=O)(O)C(C(I)I)S(=O)(=O)O", "Subject of test": "T-47D breast", "growth": "118% (inactive)"}
{"Compound": "CN=S(=O)(OCCCCCOS(=O)(=NC)c1ccc(C)cc1)c1ccc(C)cc1 (centres undefined)", "Subject of test": "T-47D breast", "growth": "88.5% (inactive)"}
{"Compound": "C=C(OC(C)=O)c1ccccc1", "Subject of test": "T-47D breast", "growth": "89.5% (inactive)"}
{"Compound": "N#C/C(=C\\c1ccc2c(c1)OCO2)c1ccccc1", "Subject of test": "T-47D breast", "growth": "61.4% (inactive)"}
{"Compound": "Cc1cc2c3ccc(C)[n+](C)c3ccc2n1C", "Subject of test": "T-47D breast", "growth": "74.5% (inactive)"}
{"Compound": "CCOc1ccc(C(=O)NCC(C)C)cc1", "Subject of test": "T-47D breast", "growth": "89.1% (inactive)"}
{"Compound": "O=[N+]([O-])c1ccc2[nH]c(=S)n(/C=C(/c3ccc(Cl)cc3Cl)S(=O)(=O)Cc3ccc(Cl)cc3Cl)c2c1", "Subject of test": "T-47D breast", "growth": "90.2% (inactive)"}
{"Compound": "C=CCC(O)C=C (centres undefined)", "Subject of test": "T-47D breast", "growth": "95.6% (inactive)"}
{"Compound": "Cc1cc(Nc2ccc3c(c2)OCO3)c2cc3c(cc2n1)OCO3", "Subject of test": "T-47D breast", "growth": "44.6% (inactive)"}
{"Compound": "O=C(c1ccc(Cl)cc1)N1CCCCC1", "Subject of test": "T-47D breast", "growth": "91.5% (inactive)"}
{"Compound": "Nc1c(Br)cc(O)c2c1C(=O)c1ccccc1C2=O", "Subject of test": "T-47D breast", "growth": "93.7% (inactive)"}
{"Compound": "CCCc1cccc(CCC)c1NC(=O)Nc1cc(Cl)cc(Cl)c1", "Subject of test": "T-47D breast", "growth": "82.3% (inactive)"}
{"Compound": "Clc1ccc(/C=C/c2ccccn2)cc1", "Subject of test": "T-47D breast", "growth": "44.1% (inactive)"}
{"Compound": "CC1=CC(=Nc2ccc(N(C)C)cc2)C=C(C)C1=O", "Subject of test": "T-47D breast", "growth": "48.5% (inactive)"}
{"Compound": "CCCCCCCCCc1ccc(OC(C)=O)cc1", "Subject of test": "T-47D breast", "growth": "108% (inactive)"}
{"Compound": "O=S(=O)(OCCOS(=O)(=O)c1ccccc1)c1ccccc1", "Subject of test": "T-47D breast", "growth": "105% (inactive)"}
{"Compound": "CCOC(=O)c1cc(Cl)c(O)c(Cl)c1", "Subject of test": "T-47D breast", "growth": "118% (inactive)"}
{"Compound": "O=C(CC(CC(=O)c1ccccc1)c1ccccn1)c1ccccc1", "Subject of test": "T-47D breast", "growth": "97.2% (inactive)"}
{"Compound": "CN(C)c1ncnc2c1cnn2C", "Subject of test": "T-47D breast", "growth": "88.2% (inactive)"}
